EXPERIMENTAL_TARGET: NLRP3 (Homo sapiens, UniProt Q96P20)
Sequence (Q96P20 whole entry): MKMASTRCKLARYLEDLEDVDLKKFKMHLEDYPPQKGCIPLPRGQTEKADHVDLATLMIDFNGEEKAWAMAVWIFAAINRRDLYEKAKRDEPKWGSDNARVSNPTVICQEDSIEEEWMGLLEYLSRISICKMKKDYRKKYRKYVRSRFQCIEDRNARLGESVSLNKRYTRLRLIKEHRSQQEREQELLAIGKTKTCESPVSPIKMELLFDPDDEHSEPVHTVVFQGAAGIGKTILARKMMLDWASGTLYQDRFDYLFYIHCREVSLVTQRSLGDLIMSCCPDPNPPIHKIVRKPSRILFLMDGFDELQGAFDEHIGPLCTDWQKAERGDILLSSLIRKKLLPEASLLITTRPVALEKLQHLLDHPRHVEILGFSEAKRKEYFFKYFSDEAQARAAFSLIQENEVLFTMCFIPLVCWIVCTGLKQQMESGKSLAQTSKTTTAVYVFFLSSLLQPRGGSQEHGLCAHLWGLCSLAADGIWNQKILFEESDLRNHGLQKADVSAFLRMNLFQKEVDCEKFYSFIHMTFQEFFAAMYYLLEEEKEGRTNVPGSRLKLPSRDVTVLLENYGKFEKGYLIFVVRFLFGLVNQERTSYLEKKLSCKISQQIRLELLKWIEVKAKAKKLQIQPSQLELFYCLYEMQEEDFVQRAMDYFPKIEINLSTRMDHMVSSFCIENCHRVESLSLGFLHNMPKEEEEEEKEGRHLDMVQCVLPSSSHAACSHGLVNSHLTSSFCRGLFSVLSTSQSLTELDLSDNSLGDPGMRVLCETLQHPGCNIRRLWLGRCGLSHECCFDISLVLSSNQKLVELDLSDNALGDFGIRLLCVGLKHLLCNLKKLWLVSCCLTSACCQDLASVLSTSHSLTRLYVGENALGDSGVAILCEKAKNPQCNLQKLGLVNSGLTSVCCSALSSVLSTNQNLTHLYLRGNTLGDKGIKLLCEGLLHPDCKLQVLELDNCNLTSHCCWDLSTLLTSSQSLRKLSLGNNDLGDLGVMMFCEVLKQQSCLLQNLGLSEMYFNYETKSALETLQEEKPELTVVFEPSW
METHOD_SUMMARY: THP-1 cells pyroptosis assay
Type: cell-based
Set-up: Seed THP-1 cells (25,000 cells/well) containing 1.0 μg/ml LPS; host or cells: THP-1 cells, LPS-primed, nigericin-stimulated
STUDY_CONDITIONS: THP-1 cells, 1.0 μg/ml LPS, nigericin 5 μM, pyroptosis read with resazurin; read-out: THP IC50
Structures can show the parent of a compound that is named as a salt.
OBSERVABLE: IC50

For orientation, consider the following solved cases.
- COMPOUND: "NC(=O)c1ccc(S(=O)(=O)NC(=O)Nc2c3c(cc4c2CCC4)CCC3)nn1 [Example 20, potassium salt]"
  OBSERVABLE: "IC50"
  READOUT_VALUE: "< 10 µM"
- COMPOUND: "O=C(Nc1c2c(cc3c1CCC3)CCC2)NS(=O)(=O)c1ccc(=O)[nH]c1 [Example 23, Potassium Salt]"
  OBSERVABLE: "IC50"
  READOUT_VALUE: "< 10 µM"
- COMPOUND: "COc1cc(S(=O)(=O)NC(=O)Nc2c3c(cc4c2CCC4)CCC3)c(OC)nn1 [Example 12, potassium salt]"
  OBSERVABLE: "IC50"
  READOUT_VALUE: "< 1.2 µM"
- COMPOUND: "Cc1ccc(S(=O)(=O)NC(=O)Nc2c3c(cc4c2CCC4)CCC3)nn1 [Example 4, Sodium Salt]"
  OBSERVABLE: "IC50"
  READOUT_VALUE: "< 10 µM"
- COMPOUND: "Cc1nccnc1S(=O)(=O)NC(=O)Nc1c2c(cc3c1CCC3)CCC2 [Example 29, Potassium Salt]"
  OBSERVABLE: "IC50"
  READOUT_VALUE: "< 10 µM"
- COMPOUND: "COc1cc(-c2ccc3c(c2NC(=O)NS(=O)(=O)c2cc(N(C)C)cnn2)CCC3)ccn1 [Example 52]"
  OBSERVABLE: "IC50"
  READOUT_VALUE: "< 0.8 µM"
- COMPOUND: "COc1cc(-c2cc(F)cc(C(C)C)c2NC(=O)NS(=O)(=O)c2cncc(N(C)C)n2)ccn1 [Example 35]"
  OBSERVABLE: "IC50"
  READOUT_VALUE: "< 0.8 µM"
- COMPOUND: "Cc1nn(C)c2ncc(S(=O)(=O)NC(=O)Nc3c4c(cc5c3CCC5)CCC4)cc12 [Example 31, Potassium Salt]"
  OBSERVABLE: "IC50"
  READOUT_VALUE: "< 10 µM"
- COMPOUND: "O=C(Nc1c2c(cc3c1CCC3)CCC2)NS(=O)(=O)c1cncnc1 [Example 10, Potassium Salt]"
  OBSERVABLE: "IC50"
  READOUT_VALUE: "< 10 µM"
- COMPOUND: "COc1ncccc1S(=O)(=O)NC(=O)Nc1c2c(cc3c1CCC3)CCC2 [Example 15, Potassium Salt]"
  OBSERVABLE: "IC50"
  READOUT_VALUE: "< 1.2 µM"

(Q) Which IC50 value is on record for O=C(Nc1c2c(cc3c1CCC3)CCC2)NS(=O)(=O)c1cnc2ccccc2n1 [Example 30, Potassium Salt] ?
(A) < 10 µM

(Q) Need IC50 of Nc1ncc(S(=O)(=O)NC(=O)Nc2c3c(cc4c2CCC4)CCC3)cn1 [Example 9, Potassium Salt] , thanks.
(A) < 2 µM

(Q) Give the measured IC50 of O=C(Nc1c(-c2ccncc2)cc(F)c2c1CCC2)NS(=O)(=O)c1nccnc1C(F)F [Example 45] .
(A) < 10 µM

(Q) Tell me the measured IC50 of CN(C)c1cnc(S(=O)(=O)NC(=O)Nc2c3c(cc4c2CCC4)CCC3)cn1 [Example 26, Potassium Salt] , please.
(A) < 0.8 µM
